biological target: activated human C1 (Homo sapiens, UniProt P09871); experiment: Test Code 026 (C1 inhibitor): protection of fluid phase human C2 from activated human C1 in the presence of C4; format: biochemical; details: serial twofold dilution assay; higher well number indicates higher activity
Reported values of In vitro Activity C1 026 Wells for individual entries

// solved cases for In vitro Activity C1 026 Wells follow
Data request: Reported In vitro Activity C1 026 Wells, molecule O=C(Nc1ccc(S(=O)(=O)[O-])c2ccc(S(=O)(=O)[O-])cc12)Nc1ccc(S(=O)(=O)[O-])c2ccc(S(=O)(=O)[O-])cc12.[Na+].[Na+].[Na+].[Na+] : ____
Data returned: +3 Wells

Data request: Reported In vitro Activity C1 026 Wells, molecule O=C(Nc1cc2c(O)cc(S(=O)(=O)[O-])cc2cc1S(=O)(=O)[O-])Nc1cc2c(O)cc(S(=O)(=O)[O-])cc2cc1S(=O)(=O)[O-].[Na+].[Na+].[Na+].[Na+] : ____
Data returned: +4 Wells

Data request: Reported In vitro Activity C1 026 Wells, molecule O=C(Nc1ccc(S(=O)(=O)[O-])c2ccccc12)Nc1ccc(S(=O)(=O)[O-])c2ccccc12.[Na+].[Na+] : ____
Data returned: +2 Wells

Data request: Reported In vitro Activity C1 026 Wells, molecule O=C(Nc1cc(S(=O)(=O)[O-])cc2cc(S(=O)(=O)[O-])ccc12)Nc1cc(S(=O)(=O)[O-])cc2cc(S(=O)(=O)[O-])ccc12.[Na+].[Na+].[Na+].[Na+] : ____
Data returned: +3 Wells

Data request: Reported In vitro Activity C1 026 Wells, molecule O=C(Nc1cc(S(=O)(=O)[O-])c2cc([N+](=O)[O-])cc(S(=O)(=O)[O-])c2c1)Nc1cc(S(=O)(=O)[O-])c2cc([N+](=O)[O-])cc(S(=O)(=O)[O-])c2c1.[Na+].[Na+].[Na+].[Na+] : ____
Data returned: +3 Wells

Data request: Reported In vitro Activity C1 026 Wells, molecule O=C(Nc1ccc2c(S(=O)(=O)[O-])cc(S(=O)(=O)[O-])cc2c1)Nc1ccc2c(S(=O)(=O)[O-])cc(S(=O)(=O)[O-])cc2c1.[Na+].[Na+].[Na+].[Na+] : ____
Data returned: +3 Wells

Data request: Reported In vitro Activity C1 026 Wells, molecule O=C(Nc1cc(S(=O)(=O)[O-])cc2ccc(S(=O)(=O)[O-])cc12)Nc1cc(S(=O)(=O)[O-])cc2ccc(S(=O)(=O)[O-])cc12.[Na+].[Na+].[Na+].[Na+] : ____
Data returned: +2 Wells

Data request: Reported In vitro Activity C1 026 Wells, molecule O=C(Nc1ccc2cc(S(=O)(=O)O)cc(O)c2c1)Nc1ccc2cc(S(=O)(=O)O)cc(O)c2c1 : ____
Data returned: +2 Wells

Data request: Reported In vitro Activity C1 026 Wells, molecule O=C(Nc1ccc2c(O)cc(S(=O)(=O)O)cc2c1)Nc1ccc2c(O)cc(S(=O)(=O)O)cc2c1 : ____
Data returned: +1 Wells

Data request: Reported In vitro Activity C1 026 Wells, molecule O=C(Nc1cc(S(=O)(=O)[O-])cc2cccc(S(=O)(=O)[O-])c12)Nc1cc(S(=O)(=O)[O-])cc2cccc(S(=O)(=O)[O-])c12.[Na+].[Na+].[Na+].[Na+] : ____
Data returned: +3 Wells

New cases:
Data request: Reported In vitro Activity C1 026 Wells, molecule O=C(Nc1cc(S(=O)(=O)[O-])cc2cc(S(=O)(=O)[O-])cc(S(=O)(=O)[O-])c12)Nc1cc(S(=O)(=O)[O-])cc2cc(S(=O)(=O)[O-])cc(S(=O)(=O)[O-])c12.[Na+].[Na+].[Na+].[Na+].[Na+].[Na+] : ____
Data returned: +5 Wells

Data request: Reported In vitro Activity C1 026 Wells, molecule O=S(=O)([O-])c1cc(NC(=S)Nc2cc(S(=O)(=O)[O-])cc3cc(S(=O)(=O)[O-])cc(S(=O)(=O)[O-])c23)c2c(S(=O)(=O)[O-])cc(S(=O)(=O)[O-])cc2c1.[Na+].[Na+].[Na+].[Na+].[Na+].[Na+] : ____
Data returned: +5 Wells

Data request: Reported In vitro Activity C1 026 Wells, molecule O=C(Nc1cc(S(=O)(=O)[O-])c2cc(S(=O)(=O)[O-])cc(S(=O)(=O)[O-])c2c1)Nc1cc(S(=O)(=O)[O-])c2cc(S(=O)(=O)[O-])cc(S(=O)(=O)[O-])c2c1.[Na+].[Na+].[Na+].[Na+].[Na+].[Na+] : ____
Data returned: +6 Wells

Data request: Reported In vitro Activity C1 026 Wells, molecule O=C(Nc1cc2ccc(S(=O)(=O)[O-])cc2cc1S(=O)(=O)[O-])Nc1cc2ccc(S(=O)(=O)[O-])cc2cc1S(=O)(=O)[O-].[Na+].[Na+].[Na+].[Na+] : ____
Data returned: +3 Wells
